assay: folding stability dG unfold (combined trypsin and chymotrypsin); higher = more stable
assay.readout: folding stability dG unfold

Some solved entries appear below for comparison.
SAGGSAGGKILVIEIEVDSPEKAVEKAKEIVKELGLPESVKIKEIVFFKEEGDKYRALVLVDLDSAGGSAGG [r6_282_TrMRF] : 3.95 kcal/mol
SAGGSFDPVEITTLEDGTIKILAKDPNTNKLFITTLKAKSIKTSSLGNGKTITTIPHEKVEESEELPSAGGS [r16_615_JUSTAS] : -0.554 kcal/mol
SAGGKTIEVWFLFPPGMPPEEVASTIAKLLPPGFKIDVEILEVQPDPGGEDYIIFKATIYYPDDGQPISAGG [r13_12_TrROS] : 4.26 kcal/mol
SAGGSAGGSAGGLPNIPGFVLLETYSETFNVPLPENRTATITKTLILHPNALLESYSINPSAGGSAGGSAGG [r7_945_TrMRF] : -0.251 kcal/mol
SAGGSAGGSAGGHPVRVRITWPDGQQRTIPIPVDPENGQVTLEEIAKTISPEHGWKIEVFSAGGSAGGSAGG [r7_492_TrROS] : -0.638 kcal/mol

Inquiry: Give the value of folding stability dG unfold reported for the following: SAGGSAGGSKEVKTIKVEITITDKNGKKITVKAEIVYDKKTKKYYIKIRNKKTNKTYIIELKLSAGGSAGGS [r20_71_TrROS_Hall]
Reply text: 4.47 kcal/mol

Inquiry: Give the value of folding stability dG unfold reported for the following: SAGGSAGGSTIDITLPDLDEEEIREYLKELFPDVEVTIEYDPSTNTYTLKVGGDEVVVTRLPPNSAGGSAGG [r6_609_JUSTAS]
Reply text: 3.43 kcal/mol

###

test: folding stability dG unfold from chymotrypsin proteolysis; higher = more stable
Given measured folding stability dG unfold, output true if it is greater than or equal to 5 kJ/mol and false if not.

Inquiry: Given SAGGSAMPDLAAAPGVTRVEPYPDGLVEIHLDGSEEARDEIEERLRAAGDFEIYRLPDRDTLLVRASAGGSA [r15_554_TrMRF] , state whether its folding stability dG unfold is at least 5 kJ/mol.
Reply text: false

Inquiry: Given SAGGSAGGSKLGVFEVGGKRYAVKVTDKNGKELTLAIPPELLKKLPKNLKVEVKEVKPGEPIPSAGGSAGGS [r12_419_TrMRF] , state whether its folding stability dG unfold is at least 5 kJ/mol.
Reply text: false

Inquiry: Given SAGKIEIVEVTKNYVKIKIKNKKTNKTIEIKIPVKKKKGKKLSKEELEELAKKLAKELYPDMKIEVEKVSAG [r5_293_TrROS_Hall] , state whether its folding stability dG unfold is at least 5 kJ/mol.
Reply text: true

Inquiry: Given SAGGSAGGSAGGGPEDRVVPLFFEFDLPEDVVLEVPSDADVFVFRLPDRTLMVLLVDERESAGGSAGGSAGG [r7_584_TrMRF] , state whether its folding stability dG unfold is at least 5 kJ/mol.
Reply text: true

Inquiry: Given SSKIKEFIIKLPEKNKYYKIIVTPTEIYIYDENGKKIKKFSIPKNKKIKKIDIKIDKKKNKLIIKVYLEKSA [r9_939_TrMRF] , state whether its folding stability dG unfold is at least 5 kJ/mol.
Reply text: true

###

assay: folding stability dG unfold from chymotrypsin proteolysis; higher = more stable
Label scheme for folding stability dG unfold: Low = under 0.6 kcal/mol, Medium = from 0.6 kcal/mol up to 2 kcal/mol, High = 2 kcal/mol and over

Past entries and their recorded results:
SAGGSAGGSAMNVTTETRTDPVTGNTTTTTTYTDTGEVVTTTTTTPPETTTTTTTTTSLTKSAGGSAGGSAG [r3_126_JUSTAS] : Medium
SGLTNLRVEAELVPPGVLRVTFTEGGKPVYELTFTVVVPAPPVVEPVLLPNGVPALVVYDPATGKPVVYPSA [r9_343_TrMRF] : High
SAGGSMKIEKLPDGKTVVIETVDEETNTITRTRFKLDKDGKLVEMEVETITLPAPPPEEVDEDGKESAGGSA [r2_375_TrROS_Hall] : High
SAGMEATIEIVGHPGDKEAIAVLRPEDKTVVIYKNKDGSYTVEVFEPNPARLIERKELPLEEAIKEALSAGG [r19_188_TrMRF] : Medium
SAGGSAGGSAVPLTVLEEEKGEGTVVVITRGPDGKLIVTTYTKDPNSEKWTEKRTVLAPEELLSAGGSAGGS [r20_70_JUSTAS] : High
SAGGSMVIPTKVSSLEEAKQVAEEILKKLGRPLTLDDVSFDPEKFKAELKPDTPVVVKVKDPSGVTLGASAG [r5_503_JUSTAS] : Low

Inquiry: Which class holds SAGGIIIYPKDPDGKQRPIPPEVIRRIVDTIARRYGFEIKIDIEIEPTNDYWVITIPIEIEGLPPEQLSAGG [r13_790_TrROS] ?
Reply text: High

Inquiry: Which class holds SAGGSAGGSAGSVLILVSREDLEALLEAGAEIVEVSDDYVLIRVEVPEVEVLDENGKRLDSAGGSAGGSAGG [r11_828_TrROS_Hall] ?
Reply text: High

Inquiry: Which class holds SAGSVTVEVFGPGRLLATYTLDDTTTTVAVPPEPVRVRIRSPGDDAEATADADPATGVVTVTVPADLGLSAG [r5_469_JUSTAS] ?
Reply text: Medium

Inquiry: Which class holds SRDLLKELAEKFPNFEPKGVQEEPTDNGGVKLQVIARHPKNGRYYKIEITVPPDGKIEDIEIEPVPLDDLSA [r9_274_TrROS] ?
Reply text: High

Inquiry: Which class holds SPEIKIELVYDEETEELYLEIEIRFPESEEEAIEALKKLLEELGFEVVEIEEIEVEEDGTVRIRVRIRKKSA [r9_876_TrROS_Hall] ?
Reply text: High

Inquiry: Which class holds SAGGSAKVKIEFFQMPPGGNPRDMQKKAQDKGDIFIIVNKPGWMIVITADDPEDANTIAKEILEEFSAGGSA [r15_546_TrROS] ?
Reply text: Medium

Inquiry: Which class holds SAGGSAGGSETVTLTLVVDSPEEAKALIDALKKAGIKEVTLEEKDGKLVLTITMSKEELEKLKSAGGSAGGS [r12_846_TrROS_Hall] ?
Reply text: High

Inquiry: Which class holds SAGGTVTLTLELTVKVKRKDGKTETKKVTLTITVEVKEGETVYTPDGKKIKPGKSAEELAKELLKKLSAGGS [r16_440_TrROS_Hall] ?
Reply text: Medium

Inquiry: Which class holds SAGGKLPKLPPGQIEIMDFQIEPDPDGRYKMSFMITITAPDNGKKVVVMLEMWMPPDGEMKTGIGIMPSAGG [r13_263_TrROS] ?
Reply text: High

Inquiry: Which class holds SAGGDDKWKIEIDIQPHDDYWVITARIRDPNGKERERMFMMPPDNIKKILNELPPEIEDIEVHRVPNSAGGS [r16_298_TrROS] ?
Reply text: High

Inquiry: Which class holds SAGGNLFIRIKIEHDGGPITHWFPIKDAEQAKDNIKEFFDQQGLPVKIKEIEVFPEEGFIPVEWRVPPSAGG [r13_567_TrROS] ?
Reply text: Low

###

assay: folding stability dG unfold from chymotrypsin proteolysis; higher = more stable
Given measured folding stability dG unfold, output fulfilled if it is greater than or equal to 1 kcal/mol and not fulfilled if not.

SAGGSAGGSAGGQTIVIDSRLLRTALENGDLEKLKALVEEAGYNPENAKIYLITPEELKESAGGSAGGSAGG [r7_3_TrMRF] : not fulfilled
SAGGSAGGSSPEENLETQVETELLEEFKPGDKPRKLVKTTVTYPDGTTKEEIVTIDENGNILLSAGGSAGGS [r12_755_JUSTAS] : not fulfilled
SDKIIIPIYLPPGQDPDEIKNEIKWFARELWDKLGLPPNVKVEIEPRPYPEGYRRYMITIRLGGKEITIWSA [r9_776_TrROS] : fulfilled
SAGGSAGGSMKVVKVELTLTGPGGEVTYLEEEIEVPEDELGEIEVSLPDENLSYEVTVEVIEESAGGSAGGS [r12_354_JUSTAS] : fulfilled
SAMKITEITYDKETNTITITVEIKLPPGVKKIKLKLFIDGAEIEEITMEVDEETGTVRITLKIRIPKDASAG [r14_244_TrROS_Hall] : fulfilled

Here's the next entry for you.
Inquiry: Given SAGGSAGGSGLEILEEREAVFPLHGLVVKREVVVRSPDGVPLVFVEVEAHPELLPLVERLFERSAGGSAGGS [r12_457_TrMRF] , state whether its folding stability dG unfold is at least 1 kcal/mol.
Reply text: not fulfilled

###

Each entry below carries its reported folding stability dG unfold.
assay: folding stability dG unfold from chymotrypsin proteolysis; higher = more stable
Field: numeric (kJ/mol). Do not append units.

Some solved entries appear below for comparison.
SAGGSAGGITLVVEGMPAEQMEEMKQKIREFAEDYNVEVNIDQERNPDGRMRATVEIEPPPGDPSAGGSAGG [r6_907_TrROS] : -1.98
SAGGMMTVRIVIEKDGKKITITAKVTKIEFDEETGKLTITFEDGSKKEIDLDKLKIKKIEVEPAPEEESAGG [r13_636_TrROS_Hall] : 12.8
SMKVTVTVERLPDGRGRITITINDSTLEIEVPPGLDPEELRAFAEETAKEIEEKLKEEGNPVTIEEITLSSA [r9_751_JUSTAS] : 6.74
SAGGMPYTLVGEKTESLGEGNTVVTKTYKPPDGTYTVETTTITTDPENGSTSTTSTTTTIPPNTPEALSAGG [r19_173_JUSTAS] : 1.4
SAGGSLPLPPGATVETTEVDPANPDRTYKTTTTFTPVPGNTLLATPVVTDPETGTTTTTTTTVPLALGSAGG [r13_268_JUSTAS] : 3.38
SMSEKVEIDPAAIAEALKAGTEYEFDIKVTVTLFDPSNGKKVSTEEKVVKVKLKIPPPSPLPDPKNGYLLSA [r9_396_JUSTAS] : 5.87

Switching to the query record.
Inquiry: Give the value of folding stability dG unfold reported for the following: SHWVRKELQEKGYPVKDIEMNPPQGYFYITIQRKRPRKGKPKKKEITIPMDPNMTPDNMLWMARNALDAYSA [r9_184_TrROS]
Reply text: 2.48

Data origin: the supplement of paper PMC12764529
